Below, each entry is listed alongside its reported %Inh.
System: p38-beta;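 note: KINOMEscan kinase panel screen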
Construct: gene MAPK11
Conditions: concentration: 1 μM, replicates: in singlicate; n = 1
endpoint name: %Inh (%)

In [3]: df
Out[3]:
                                    compound  target_entity  display_unit  reading
 0  C[C@@H]1CCN(C(=O)CO)C[C@@H]1N(C)c1ncnc2[nH]ccc12       p38-beta             %        5
 1  Cc1cccc(-c2nc(Nc3ccc4[nH]nnc4c3)c3ccccc3n2)n1 [GW867587]       p38-beta             %        0
 2  Nc1nccc2scc(-c3ccc4c(c3)CCN4C(=O)Cc3cc(F)ccc3F)c12 [GSK2587663]       p38-beta             %        0
 3  CC(C)(C)OC(=O)NC1CCCN(c2cc(-c3ccc4c(N)n[nH]c4c3)nc(N)n2)C1 (centres unmarked) [GSK2286096]       p38-beta             %        0
 4  Nc1n[nH]c2nnc(-c3ccccc3)cc12 [SB-517389]       p38-beta             %        0
 5  Cl.O=S(=O)(c1cccc(F)c1)c1ccc(Nc2ncnc3cc(Br)sc23)cc1Cl [GSK306886]       p38-beta             %        0
 6  CC(=O)Nc1n[nH]c2ncc(-c3ccccc3)cc12 [SB-548492]       p38-beta             %       11
 7  COc1ccc(Nc2nccc(N3CCC(NC(=O)Nc4ccc5c(c4)OCO5)C3)n2)cc1 (centres unmarked) [GSK1379745]       p38-beta             %        0
 8  CSc1ccc(NC2=C(c3ccccc3Cl)C(=O)NC2=O)cc1 [SB-342411]       p38-beta             %        0
 9  O=C(c1ccc(-c2cc(-c3c[nH]nc3-c3ccccn3)ccn2)cc1)N1CCCC1 [GW792479]       p38-beta             %       20
10  Cl.Cl.c1ccc(-c2cc3ccncc3cc2OC2CCNCC2)cc1 [GSK1122999]       p38-beta             %        0
11  Cc1ccc(NC(=O)c2cccc(C#N)c2)cc1-c1ccc(C(=O)Nc2ccncc2)cc1 [GSK1398463]       p38-beta             %        9
12  N#Cc1ccc(Oc2ccc(Nc3ncnc4cc[nH]c34)cc2Cl)cc1       p38-beta             %       14
13  OCCOCCn1ccc2ncnc(Nc3ccc(Oc4cccc(Cl)c4)c(Cl)c3)c21       p38-beta             %        0
14  Nc1nc(-c2cccnc2)c(-c2ccnc3ccccc23)s1 [GW684083]       p38-beta             %        0
15  Nc1nc(-c2ccc3c(N)n[nH]c3c2)cc(N2CCCCC2)n1 [GSK2228768]       p38-beta             %        0
16  Clc1cccc(-c2nc(Nc3ccncc3)c3ccccc3n2)c1 [GW873004]       p38-beta             %        0
17  Cl.Fc1ccccc1COc1ccc(Nc2ncnc3ccc(-c4nnc(C(F)(F)F)o4)cc23)cc1Cl [GW424170]       p38-beta             %        0
18  Cl.c1ccc(Cn2ccc3cc(Nc4ncnc5ccccc45)ccc32)cc1 [GW275568]       p38-beta             %        0
19  CSc1nn2c(=O)cc(N3CCOCC3)nc2n1Cc1cccc(Cl)c1Cl [GSK2347225]       p38-beta             %        0
20  Cl.c1ccc(Cn2ncc3cc(Nc4ncnc5ccccc45)ccc32)cc1 [GW273749]       p38-beta             %        0
21  Fc1ccc(Nc2nccc(-c3c(-c4ccc(Cl)cc4)nn4ncccc34)n2)cc1F [GW829058]       p38-beta             %       19
22  c1ccc(-c2ccc3c(-c4ccnc(Nc5ccc6c(c5)OCCO6)n4)cnn3n2)cc1 [GW818941]       p38-beta             %        0
23  O=C(Nc1ccccc1F)NC1CCN(c2ccnc(Nc3ccc(F)cc3)n2)C1 (centres unmarked) [GSK1379722]       p38-beta             %        0
24  Cn1ccc2ncnc(Nc3ccc(Oc4cccc(Cl)c4)c(Cl)c3)c21       p38-beta             %       22
25  CN1CCC(n2cnc(-c3ccc(F)cc3)c2-c2ccnc(NC3CCNCC3)n2)CC1 [SB-229482]       p38-beta             %       23
26  Fc1ccc(-c2ncn(CCCNCc3ccccc3)c2-c2ccncc2)cc1       p38-beta             %        4
27  O=C(CCO)NCCn1ccc2ncnc(Nc3ccc(Oc4cccc(C(F)(F)F)c4)c(Cl)c3)c21       p38-beta             %        0
28  COc1cc2ncnc(Nc3ccc(OCc4ccccc4Br)c(Cl)c3)c2cc1OC.Cl [GI261590]       p38-beta             %        0
29  CC(C)(C)c1ccc(-n2cnc3c(N)ncnc32)cc1 [SKF-97263]       p38-beta             %        0
30  CS(=O)(=O)CCNCc1nc(-c2ccc3ncnc(Nc4ccc(OCc5cccc(F)c5)c(Cl)c4)c3c2)cs1.Cl [GW583340]       p38-beta             %        0
31  CNc1nccc(-c2c(-c3ccc(F)cc3)ncn2CCCN2CCOCC2)n1 [SB-222516]       p38-beta             %       15
32  Cn1ccc2ncnc(Oc3ccc(NC(=O)Nc4cccnc4)c(Cl)c3)c21       p38-beta             %        0
33  FC(F)(F)c1ccc(-c2cc(-c3c[nH]nc3-c3ccccn3)ccn2)cc1 [GW599550]       p38-beta             %        0
34   O=C(Nc1ccccc1)Nc1ccc(Oc2ccc3nccn3n2)cc1       p38-beta             %        0
